Recorded log10 of IC50 for the following molecules
target: EGFR L858R/C797S (Homo sapiens, UniProt P00533, C797S/L858R); experiment: Biochemical EGFR kinase inhibition assay (Lance Ultra TR-FRET), double mutant L858R/C797S; details: Km ATP; read-out: IC50 L858R/C797S (nM) Km ATP
Sequence (P00533 25-1210 C797S/L858R): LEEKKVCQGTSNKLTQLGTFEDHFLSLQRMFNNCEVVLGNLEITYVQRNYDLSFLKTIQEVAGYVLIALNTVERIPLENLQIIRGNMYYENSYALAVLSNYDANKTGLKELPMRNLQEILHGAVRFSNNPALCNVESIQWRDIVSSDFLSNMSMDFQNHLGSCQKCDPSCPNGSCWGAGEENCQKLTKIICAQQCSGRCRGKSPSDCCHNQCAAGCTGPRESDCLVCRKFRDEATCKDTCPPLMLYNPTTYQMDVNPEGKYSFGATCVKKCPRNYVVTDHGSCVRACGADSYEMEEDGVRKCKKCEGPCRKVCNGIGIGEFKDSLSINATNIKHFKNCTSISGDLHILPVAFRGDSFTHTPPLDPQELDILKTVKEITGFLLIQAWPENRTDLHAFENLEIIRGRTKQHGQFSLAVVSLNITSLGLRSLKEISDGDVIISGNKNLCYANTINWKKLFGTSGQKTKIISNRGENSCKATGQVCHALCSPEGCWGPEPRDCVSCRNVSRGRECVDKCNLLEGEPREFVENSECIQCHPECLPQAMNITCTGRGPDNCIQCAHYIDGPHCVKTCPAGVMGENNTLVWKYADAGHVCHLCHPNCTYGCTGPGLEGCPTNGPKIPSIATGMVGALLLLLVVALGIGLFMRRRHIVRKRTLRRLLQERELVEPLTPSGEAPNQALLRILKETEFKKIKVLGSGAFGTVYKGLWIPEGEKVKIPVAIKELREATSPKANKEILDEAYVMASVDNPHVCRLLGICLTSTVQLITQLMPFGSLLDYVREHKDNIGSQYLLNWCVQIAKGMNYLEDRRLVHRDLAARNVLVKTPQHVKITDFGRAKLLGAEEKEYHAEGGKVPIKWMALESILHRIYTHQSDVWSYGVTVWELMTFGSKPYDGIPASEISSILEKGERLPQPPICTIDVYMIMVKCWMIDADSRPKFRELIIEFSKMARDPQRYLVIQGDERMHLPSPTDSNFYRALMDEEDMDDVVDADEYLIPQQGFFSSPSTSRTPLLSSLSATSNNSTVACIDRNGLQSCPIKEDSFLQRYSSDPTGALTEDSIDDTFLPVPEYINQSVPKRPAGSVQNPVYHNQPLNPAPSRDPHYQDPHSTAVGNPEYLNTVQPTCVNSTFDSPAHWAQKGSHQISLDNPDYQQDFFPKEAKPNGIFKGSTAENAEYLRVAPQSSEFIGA
The base-10 logarithm of IC50, taken with IC50 in nM, is what appears here.

q: // log10 of IC50 lookup, key: `CC1(CO)CCN(c2cc(Nc3ccnc(-c4cnn(S(=O)(=O)C5CC5)c4)n3)ncc2C#Cc2cnn(C(F)(F)F)c2)CC1`
a: 0.48

---

Recorded IC50 for the following compounds
target: EGFR L858R/C797S (Homo sapiens, UniProt P00533, C797S/L858R); assay: Biochemical EGFR kinase inhibition assay (Lance Ultra TR-FRET), double mutant L858R/C797S; conditions: Km ATP; read-out: IC50 L858R/C797S (nM) Km ATP

# example entries with known answers
- compound: "Cn1cc(C#Cc2cnc(Nc3ccnc(-c4cnn(S(=O)(=O)C5CC5)c4)n3)cc2N[C@H]2CC[C@@](C)(O)CC2)cn1"
  target: "EGFR L858R/C797S (Homo sapiens, UniProt P00533, C797S/L858R)"
  measured-parameter: "IC50"
  reported-result: "5.3 nM"
- compound: "O=S(=O)(C1CC1)n1cc(-c2nccc(Nc3cc(N4CCCC(O)C4)c(C#Cc4cnn(C5CCOCC5)c4)cn3)n2)cn1 (stereo not drawn)"
  target: "EGFR L858R/C797S (Homo sapiens, UniProt P00533, C797S/L858R)"
  measured-parameter: "IC50"
  reported-result: "4.2 nM"

Now take the following compound into account.
q: // IC50 lookup, key: `CN(C)C(=O)Cn1cc(C#Cc2cnc(Nc3ccnc(-c4cnn(S(=O)(=O)C5CC5)c4)n3)cc2N[C@H]2CC[C@@](C)(O)CC2)cn1`
a: 3.8 nM

---

Recorded IC50 for the following molecules
biological target: EGFR Del19/T790M/C797S (Homo sapiens, UniProt P00533, C797S/DEL746-750/T790M); assay: Biochemical EGFR kinase inhibition assay (Lance Ultra TR-FRET), triple mutant del19/T790M/C797S; conditions: Km ATP; read-out: IC50 Del19/T790M/C797S (nM), Km ATP
Sequence (P00533 with tags, fused parts or gaps DEL746-750/T790M/C797S): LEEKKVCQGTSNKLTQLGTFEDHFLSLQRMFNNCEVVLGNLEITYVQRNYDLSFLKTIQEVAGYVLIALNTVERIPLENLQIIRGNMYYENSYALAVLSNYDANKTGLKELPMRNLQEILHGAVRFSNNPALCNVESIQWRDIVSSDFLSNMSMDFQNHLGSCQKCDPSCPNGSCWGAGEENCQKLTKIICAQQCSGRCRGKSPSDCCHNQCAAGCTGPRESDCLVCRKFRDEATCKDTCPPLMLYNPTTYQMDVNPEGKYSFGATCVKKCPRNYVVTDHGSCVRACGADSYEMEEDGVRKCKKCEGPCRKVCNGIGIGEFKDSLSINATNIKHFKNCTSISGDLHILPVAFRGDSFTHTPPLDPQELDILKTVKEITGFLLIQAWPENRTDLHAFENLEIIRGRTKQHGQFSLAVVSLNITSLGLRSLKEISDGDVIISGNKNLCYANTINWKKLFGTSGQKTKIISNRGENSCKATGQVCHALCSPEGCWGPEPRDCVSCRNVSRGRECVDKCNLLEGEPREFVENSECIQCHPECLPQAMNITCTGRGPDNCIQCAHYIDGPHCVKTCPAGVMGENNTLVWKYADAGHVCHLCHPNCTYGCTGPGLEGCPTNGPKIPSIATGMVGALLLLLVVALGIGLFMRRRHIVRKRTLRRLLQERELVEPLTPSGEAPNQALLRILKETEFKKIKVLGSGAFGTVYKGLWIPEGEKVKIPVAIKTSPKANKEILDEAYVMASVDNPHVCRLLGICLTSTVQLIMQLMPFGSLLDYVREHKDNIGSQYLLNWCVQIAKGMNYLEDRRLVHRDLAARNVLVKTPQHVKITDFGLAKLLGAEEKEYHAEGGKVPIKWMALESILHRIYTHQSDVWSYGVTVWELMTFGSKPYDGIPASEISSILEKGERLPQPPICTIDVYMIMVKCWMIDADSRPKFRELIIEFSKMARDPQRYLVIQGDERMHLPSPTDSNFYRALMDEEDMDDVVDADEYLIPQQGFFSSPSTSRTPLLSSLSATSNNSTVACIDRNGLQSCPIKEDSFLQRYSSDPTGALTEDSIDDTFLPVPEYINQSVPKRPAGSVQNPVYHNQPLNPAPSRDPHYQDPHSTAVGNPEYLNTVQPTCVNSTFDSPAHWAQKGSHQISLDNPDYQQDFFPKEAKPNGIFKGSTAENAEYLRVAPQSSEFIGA
Please state the figure in nM; there is no need to write the unit.

q: // IC50 lookup, key: `O=S(=O)(C1CC1)n1cc(-c2nccc(Nc3cc(N4CCC[C@@H](O)C4)c(C#Cc4cnn(CCF)c4)cn3)n2)cn1`
a: 0.5

q: // IC50 lookup, key: `COC1(O)CCN(c2cc(Nc3ccnc(-c4cnn(S(=O)(=O)C5CC5)c4)n3)ncc2C#Cc2ccc(CN3CCN(C)CC3)cc2)CC1`
a: 0.9

q: // IC50 lookup, key: `C[C@]1(O)CC[C@@H](Nc2cc(Nc3ccnc(-c4cnn(S(=O)(=O)C5CC5)c4)n3)ncc2C#Cc2cnn(CC(F)(F)F)c2)CC1`
a: 7.9

q: // IC50 lookup, key: `CS(=O)(=O)N1CCC(C#Cc2cnc(Nc3ccnc(-c4cnn(S(=O)(=O)C5CC5)c4)n3)cc2NC[C@H]2CC[C@H](CO)CC2)CC1`
a: 2.7

q: // IC50 lookup, key: CS(=O)(=O)N1CCC(C#Cc2cnc(Nc3ccnc(-c4cnn(S(=O)(=O)C5CC5)c4)n3)cc2NC2CCC(O)CC2)C1 (stereo not drawn)
a: 1.3

q: // IC50 lookup, key: `CC1(CO)CCN(c2cc(Nc3ccnc(-c4cnn(S(=O)(=O)C5CC5)c4)n3)ncc2C#CC2(O)COC2)CC1`
a: 0.2

q: // IC50 lookup, key: `O=S(=O)(C1CC1)n1cc(-c2nccc(Nc3cc(N4CCC[C@H](O)C4)c(C#Cc4cnn(C(F)(F)F)c4)cn3)n2)cn1`
a: 2.1

q: // IC50 lookup, key: O=S(=O)(C1CC1)n1cc(-c2nccc(Nc3cc(NC4CCC(CO)CC4)c(C#CC4CCOC4C(F)(F)F)cn3)n2)cn1 (stereo not drawn)
a: 2.6

q: // IC50 lookup, key: CS(=O)(=O)N1CCC(C#Cc2cnc(Nc3ccnc(-c4cnn(S(=O)(=O)C5CC5)c4)n3)cc2NCC2CCC(CO)CC2)C1 (stereo not drawn)
a: 34

q: // IC50 lookup, key: O=S(=O)(C1CC1)N1CCC(C#Cc2cnc(Nc3ccnc(-c4cnn(S(=O)(=O)C5CC5)c4)n3)cc2NC2CCC(O)CC2)C1 (stereo not drawn)
a: 0.5

q: // IC50 lookup, key: CC1(CO)CCN(c2cc(Nc3ccnc(-c4cnn(S(=O)(=O)C5CC5)c4)n3)ncc2C#CC2CCN(S(=O)(=O)C3CC3)C2)CC1 (stereo not drawn)
a: 0.6

q: // IC50 lookup, key: `O=S(=O)(C1CC1)n1cc(-c2nccc(Nc3cc(NC[C@H]4CC[C@H](CO)CC4)c(C#Cc4cnn(CCF)c4)cn3)n2)cn1`
a: 2.9

q: // IC50 lookup, key: CC1(CO)CCN(c2cc(Nc3ccnc(-c4cnn(S(=O)(=O)C5CC5)c4)n3)ncc2C#CC2CCN(S(C)(=O)=O)C2)CC1 (stereo not drawn)
a: 0.7

q: // IC50 lookup, key: `CC1(O)CC2(CCN(c3cc(Nc4ccnc(-c5cnn(S(=O)(=O)C6CC6)c5)n4)ncc3C#Cc3cnn(CC(F)(F)F)c3)CC2)C1`
a: 5.4

q: // IC50 lookup, key: O=S(=O)(C1CC1)n1cc(-c2nccc(Nc3cc(NC4CCC(O)CC4)c(C#CC4CCOC4C(F)(F)F)cn3)n2)cn1 (stereo not drawn)
a: 1.6

---

Recorded IC50 for the following compounds
molecular target: EGFR Del19/T790M/C797S (Homo sapiens, UniProt P00533, C797S/DEL746-750/T790M); test: Biochemical EGFR kinase inhibition assay (Lance Ultra TR-FRET), triple mutant del19/T790M/C797S; conditions: IC50 Del19/T790M/C797S (nM), 100 μM ATP
Please state the figure in nM; there is no need to write the unit.

# example entries with known answers
- compound: "O=S(=O)(C1CC1)N1CCC(C#Cc2cnc(Nc3ccnc(-c4cnn(S(=O)(=O)C5CC5)c4)n3)cc2NC2CCC(CO)CC2)C1 (stereo not drawn)"
  IC50 / nM: 0.6
- compound: "Cn1ncc(C#Cc2cnc(Nc3ccnc(-c4cnn(S(=O)(=O)C5CC5)c4)n3)cc2N[C@H]2CC[C@@H](O)CC2)c1C1CC1"
  IC50 / nM: 1.6

Now take the following compound into account.
q: // IC50 lookup, key: `CC1(CO)CCN(c2cc(Nc3ccnc(-c4cnn(S(=O)(=O)C5CC5)c4)n3)ncc2C#Cc2ccc(C(=O)N3CCC(O)CC3)cc2)CC1`
a: 1.2

---

target: EGFR Del19/C797S (Homo sapiens, UniProt P00533, C797S/DEL746-750); assay: Biochemical EGFR kinase inhibition assay (Lance Ultra TR-FRET), double mutant del19/C797S; details: IC50 Del19/C797S (nM), 100 μM ATP
Sequence (P00533 with tags, fused parts or gaps DEL746-750/C797S): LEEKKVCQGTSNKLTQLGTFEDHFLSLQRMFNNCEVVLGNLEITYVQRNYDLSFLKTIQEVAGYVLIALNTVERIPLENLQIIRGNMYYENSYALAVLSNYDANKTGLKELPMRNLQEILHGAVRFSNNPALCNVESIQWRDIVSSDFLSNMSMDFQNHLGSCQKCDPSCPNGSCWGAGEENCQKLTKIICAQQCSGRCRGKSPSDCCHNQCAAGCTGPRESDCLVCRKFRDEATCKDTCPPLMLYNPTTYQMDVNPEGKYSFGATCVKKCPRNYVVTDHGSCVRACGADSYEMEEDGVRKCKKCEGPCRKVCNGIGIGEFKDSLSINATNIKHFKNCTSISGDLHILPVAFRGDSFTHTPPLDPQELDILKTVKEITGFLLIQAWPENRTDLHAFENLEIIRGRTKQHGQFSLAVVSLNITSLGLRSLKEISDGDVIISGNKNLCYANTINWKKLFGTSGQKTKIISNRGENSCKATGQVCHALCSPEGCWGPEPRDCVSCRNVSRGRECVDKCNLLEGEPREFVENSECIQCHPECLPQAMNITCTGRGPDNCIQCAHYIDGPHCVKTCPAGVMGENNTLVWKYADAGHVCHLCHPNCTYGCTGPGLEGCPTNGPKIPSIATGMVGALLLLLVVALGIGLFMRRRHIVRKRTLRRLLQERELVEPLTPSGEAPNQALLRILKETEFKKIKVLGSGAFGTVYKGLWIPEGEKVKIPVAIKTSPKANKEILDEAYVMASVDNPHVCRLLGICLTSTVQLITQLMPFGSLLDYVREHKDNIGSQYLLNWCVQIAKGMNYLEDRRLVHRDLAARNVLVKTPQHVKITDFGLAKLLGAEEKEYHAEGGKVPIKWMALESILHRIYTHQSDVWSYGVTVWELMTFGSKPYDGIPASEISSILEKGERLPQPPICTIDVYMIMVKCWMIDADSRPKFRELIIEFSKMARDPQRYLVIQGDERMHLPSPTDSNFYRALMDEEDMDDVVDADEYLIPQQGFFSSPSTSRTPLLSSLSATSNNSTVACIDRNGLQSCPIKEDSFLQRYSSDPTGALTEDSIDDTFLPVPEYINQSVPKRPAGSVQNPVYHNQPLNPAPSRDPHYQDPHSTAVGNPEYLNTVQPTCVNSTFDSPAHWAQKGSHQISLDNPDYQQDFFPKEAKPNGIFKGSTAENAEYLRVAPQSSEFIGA
measured-parameter: IC50 (nM)
Please state the figure in nM; there is no need to write the unit.

# example entries with known answers
- molecule: "O=S(=O)(C1CC1)n1cc(-c2nccc(Nc3cc(N4CCCC(O)C4)c(C#Cc4cnn(C5CCOCC5)c4)cn3)n2)cn1 (stereo not drawn)"
  IC50 / nM: 14
- molecule: "Cn1cc(C#Cc2cnc(Nc3ccnc(-c4cnn(S(=O)(=O)C5CC5)c4)n3)cc2N2CCC(NCC3CC3)CC2)cn1"
  IC50 / nM: 26.3

q: Record lookup: for EGFR Del19/C797S (Homo sapiens, UniProt P00533, C797S/DEL746-750), what IC50 belongs to `CC(C)n1cc(C#Cc2cnc(Nc3ccnc(-c4cnn(S(=O)(=O)C5CC5)c4)n3)cc2OC[C@H]2CC[C@H](CN(C)C)CC2)cn1` ?
a: 2.6

q: Record lookup: for EGFR Del19/C797S (Homo sapiens, UniProt P00533, C797S/DEL746-750), what IC50 belongs to `Cn1cc(C#Cc2cnc(Nc3ccnc(-c4cnn(S(=O)(=O)C5CC5)c4)n3)cc2N2CCC(F)CC2)cn1` ?
a: 9.5

q: Record lookup: for EGFR Del19/C797S (Homo sapiens, UniProt P00533, C797S/DEL746-750), what IC50 belongs to `CC(C)NC1CCN(c2cc(Nc3ccnc(-c4cnn(S(=O)(=O)C5CC5)c4)n3)ncc2C#Cc2cnn(C)c2)CC1` ?
a: 88.3

q: Record lookup: for EGFR Del19/C797S (Homo sapiens, UniProt P00533, C797S/DEL746-750), what IC50 belongs to `O=S(=O)(C1CC1)n1cc(-c2nccc(Nc3cc(N[C@H]4CCC[C@@H](O)C4)c(C#Cc4ccc(CN5CCOCC5)cc4)cn3)n2)cn1` ?
a: 21.7

q: Record lookup: for EGFR Del19/C797S (Homo sapiens, UniProt P00533, C797S/DEL746-750), what IC50 belongs to `Cn1cnc(C#Cc2cnc(Nc3ccnc(-c4cnn(S(=O)(=O)C5CC5)c4)n3)cc2N2CCC(O)CC2)n1` ?
a: 109

q: Record lookup: for EGFR Del19/C797S (Homo sapiens, UniProt P00533, C797S/DEL746-750), what IC50 belongs to `CC1(CO)CCN(c2cc(Nc3ccnc(-c4cnn(S(=O)(=O)C5CC5)c4)n3)ncc2C#Cc2cnn(C3CCOCC3)c2)CC1` ?
a: 2.3

q: Record lookup: for EGFR Del19/C797S (Homo sapiens, UniProt P00533, C797S/DEL746-750), what IC50 belongs to `CNC1CCN(c2cc(Nc3ccnc(-c4cnn(S(=O)(=O)C5CC5)c4)n3)ncc2C#Cc2ccn(C)n2)CC1` ?
a: 176

q: Record lookup: for EGFR Del19/C797S (Homo sapiens, UniProt P00533, C797S/DEL746-750), what IC50 belongs to `C=CC#Cc1cnc(Nc2ccnc(-c3cnn(S(=O)(=O)C4CC4)c3)n2)cc1N1CCC(C)(CO)CC1` ?
a: 3.3

q: Record lookup: for EGFR Del19/C797S (Homo sapiens, UniProt P00533, C797S/DEL746-750), what IC50 belongs to `CC(C)Nc1cc(Nc2ccnc(-c3cnn(S(=O)(=O)C4CC4)c3)n2)ncc1C#Cc1cnn(C)c1` ?
a: 47.3

q: Record lookup: for EGFR Del19/C797S (Homo sapiens, UniProt P00533, C797S/DEL746-750), what IC50 belongs to CC1OCCC1C#Cc1cnc(Nc2ccnc(-c3cnn(S(=O)(=O)C4CC4)c3)n2)cc1NC1CCC(O)CC1 (stereo not drawn) ?
a: 3.2

q: Record lookup: for EGFR Del19/C797S (Homo sapiens, UniProt P00533, C797S/DEL746-750), what IC50 belongs to `CC(=O)N1CCC(n2cc(C#Cc3cnc(Nc4ccnc(-c5cnn(S(=O)(=O)C6CC6)c5)n4)cc3N[C@H]3CC[C@@H](O)CC3)cn2)CC1` ?
a: 3

q: Record lookup: for EGFR Del19/C797S (Homo sapiens, UniProt P00533, C797S/DEL746-750), what IC50 belongs to `CN(C)CCC1CCN(c2cc(Nc3ccnc(-c4cnn(S(=O)(=O)C5CC5)c4)n3)ncc2C#CC2(C)CC2)CC1` ?
a: 0.7

q: Record lookup: for EGFR Del19/C797S (Homo sapiens, UniProt P00533, C797S/DEL746-750), what IC50 belongs to `Cn1cc(C#Cc2cnc(Nc3ccnc(-c4cnn(S(=O)(=O)C5CC5)c4)n3)cc2N2CCC(F)(C(F)(F)F)CC2)cn1` ?
a: 114

q: Record lookup: for EGFR Del19/C797S (Homo sapiens, UniProt P00533, C797S/DEL746-750), what IC50 belongs to O=C(N1CCC(C#Cc2cnc(Nc3ccnc(-c4cnn(S(=O)(=O)C5CC5)c4)n3)cc2NCC2CCC(O)CC2)C1)C(F)(F)F (stereo not drawn) ?
a: 81.3

q: Record lookup: for EGFR Del19/C797S (Homo sapiens, UniProt P00533, C797S/DEL746-750), what IC50 belongs to `O=S(=O)(C1CC1)n1cc(-c2nccc(Nc3cc(NC[C@H]4CC[C@H](O)CC4)c(C#Cc4cnn(C(F)F)c4)cn3)n2)cn1` ?
a: 37.3

q: Record lookup: for EGFR Del19/C797S (Homo sapiens, UniProt P00533, C797S/DEL746-750), what IC50 belongs to `CC1(O)CC2(CCN(c3cc(Nc4ccnc(-c5cnn(S(=O)(=O)C6CC6)c5)n4)ncc3C#Cc3cnn(C(F)(F)F)c3)CC2)C1` ?
a: 12.4
